In this section we review reported TGI values for a set of molecules.
Tested on: NCI-H460 lung
Experiment: NCI tumour cell line growth inhibition, 48 h
MEASUREMENT TYPE: TGI

molecule=[C-]#[O+].[C-]#[O+].[C-]#[O+].[C-]#[O+].[Ir].[Ir].[O-]c1ccc2ccccc2c1C=Nc1ccc(N=Cc2c([O-])ccc3ccccc23)cc1 target_system="NCI-H460 lung" reported="> 100 µM"
molecule=C=C(C)[C@@H]1CC[C@]2(C(=O)NCCNCCNCCN)CC[C@]3(C)[C@H](CC[C@@H]4[C@@]5(C)CC[C@H](O)C(C)(C)[C@@H]5CC[C@]43C)[C@@H]12 target_system="NCI-H460 lung" reported="32 µM"
molecule="COC(=O)C1CC=C(SC(=O)c2ccccc2)N1C(=O)c1ccccc1 (stereo not drawn)" target_system="NCI-H460 lung" reported="> 100 µM"
molecule="CC1CC2C(=O)N(c3ccccc3)C(=O)C2c2c1c1ccccc1n2Cc1ccccc1 (stereo not drawn)" target_system="NCI-H460 lung" reported="> 100 µM"
molecule=N#Cc1c(-c2ccc(Cl)cc2)c(C#N)c(=O)n(NS(=O)(=O)c2ccccc2)c1S target_system="NCI-H460 lung" reported="46 µM"
molecule=COc1cc(Cn2c(=S)ss/c2=N\C(=S)N(C)C)cc(OC)c1OC target_system="NCI-H460 lung" reported="52.3 µM"
molecule=Cc1nc2cnc3cc(F)c(-c4ccc(Oc5ncccn5)cc4Cl)cc3c2n1[C@H]1CCN(C(=O)CO)C[C@@H]1F target_system="NCI-H460 lung" reported="> 100 µM"
molecule=CCOC(=O)C1=C(NNC(=O)Cc2ccccc2)CSC1=Nc1ccccc1 target_system="NCI-H460 lung" reported="> 100 µM"

----------
Test system: OVCAR-5 ovarian
Test: NCI tumour cell line growth inhibition, 48 h
MEASUREMENT TYPE: TGI

molecule="O=C(Cc1ccccc1)NN1C(=O)C(Cl)C1c1ccc([N+](=O)[O-])cc1 (stereo unspecified)" measurement_type=TGI reported="> 100 µM"
molecule="CC1(C)C2CCC(N)(C2)C1N (stereo unspecified)" measurement_type=TGI reported="> 100 µM"
molecule=C=CN1C(=O)OC[C@@H]1c1ccccc1 measurement_type=TGI reported="> 100 µM"
molecule="O=C(O)CCC(NC(=O)c1ccc(Nc2cnc3ccc(C(F)(F)F)cc3n2)cc1)C(=O)O (stereo unspecified)" measurement_type=TGI reported="> 100 µM"
molecule=COc1cc2c(cc1OC)CC(=O)c1cc(OC)c(OC)cc1/C=C\2 measurement_type=TGI reported="> 12.5 µM"
molecule="C=CCN(N=O)C(=O)N(CCCC(NC(C)=O)C(=O)NCc1ccccc1)Cc1ccccc1 (stereo unspecified)" measurement_type=TGI reported="> 100 µM"
molecule=Cc1cccc(NC(=O)c2cc3cc(N=Nc4ccccc4Cl)ccc3oc2=O)c1 measurement_type=TGI reported="56.8 µM"
molecule=CCOC(=O)c1sc2nc(SC)nc3c2c1NCN3c1ccc2c(c1)OCCCO2 measurement_type=TGI reported="> 100 µM"
molecule="C=C(C)C(=O)OC1CC2=CC(CC3(C)OC3C3OC(=O)C(=C)C13)OC2=O (stereo unspecified)" measurement_type=TGI reported="34.6 µM"
molecule=Cc1ccc(S(=O)(=O)NNC(=O)c2sc(-c3nc(C)c(C(=O)NNS(=O)(=O)c4ccc(C)cc4)s3)nc2C)cc1 measurement_type=TGI reported="> 100 µM"
molecule="COC(=O)C1=C(C(=O)OC)C2C(C)=CC(C)=CN2C(C#N)=C(SC)S1 (stereo unspecified)" measurement_type=TGI reported="84.7 µM"
molecule=NNC(=O)CCC(=O)Nc1cc(Cl)c(Cl)cc1Cl measurement_type=TGI reported="> 100 µM"
molecule=Cc1nc2ccc(F)cc2c2c1CCO2 measurement_type=TGI reported="> 100 µM"
molecule=CCCCCCCCCCCCCCCC[N+](C)(C)CCN(Cc1ccc(OC)cc1)c1ncccn1 measurement_type=TGI reported="4.62 µM"
molecule="O=c1c2cc(Br)ccc2nc(-c2ccccc2Cl)n1NCC1(O)OCC(O)C(O)C1O (stereo unspecified)" measurement_type=TGI reported="> 100 µM"
molecule="Cc1nn(C(=O)c2ccncc2)c2c1C(c1ccc(Cl)cc1)SC(N)=N2 (stereo unspecified)" measurement_type=TGI reported="> 10 µM"
molecule=COc1cccc(Nc2nc(-c3cccs3)nc3ccc(Br)cc23)c1 measurement_type=TGI reported="> 100 µM"
molecule="CCCCCCCCC(=O)N(C)C1C2CN3CCC(O2)C13 (stereo unspecified)" measurement_type=TGI reported="> 100 µM"
molecule=C=C(C)[C@@H]1CC[C@]2(C(=O)NCCNCCNCCN)CC[C@]3(C)[C@H](CC[C@@H]4[C@@]5(C)CC[C@H](O)C(C)(C)[C@@H]5CC[C@]43C)[C@@H]12 measurement_type=TGI reported="35 µM"
molecule=O=C1C=C[C@@]23C[C@@H](Nc4c(O)c5c6c(c42)=NCCC=6C=N5)SC3=C1 measurement_type=TGI reported="9.5 µM"
molecule=CN(C)CCCNc1ncnc2nc[nH]c12 measurement_type=TGI reported="> 100 µM"

----------
In this section we review reported TGI values for a set of compounds.
System: U251 CNS
Assay: NCI tumour cell line growth inhibition, 48 h
MEASUREMENT TYPE: TGI

compound=COc1ccn2c(C(C)=O)cc(C(=O)c3ccc4c(c3)Sc3ccccc3N4)c2c1 reported="> 100 µM"
compound=CSc1nc(-c2ccc(C)cc2)c(C#N)c(=O)[nH]1 reported="> 100 µM"
compound=CN=CN(C)c1c2ccccc2nc2ccccc12 reported="> 100 µM"
compound="CCOC(=O)c1cc(C2CCN(CC(C)CC)C2=S)c(-c2cc(C)no2)[nH]1 (stereo not drawn)" reported="> 100 µM"
compound="N=C(N)C(N=Nc1ccccc1)C(N)=O (stereo not drawn)" reported="> 100 µM"
compound=COc1ccc2c(c1)c(-c1nc(-c3c[nH]c4ncccc34)cs1)cn2CCCCN1CCOCC1 reported="3.33 µM"
compound=COc1ccc(C(=O)COc2cccc(/C=C3\CSc4ccccc4C3=O)c2)cc1 reported="2.99 µM"
compound=Cc1nc2ccc(F)cc2c2c1CCO2 reported="> 100 µM"
compound=C=CC1=C[C@@H]2[C@@H]3O[C@]4(CC[C@H](O4)[C@@H](C)C[C@@H](O)C3=O)C[C@H](O)C3=NCC[C@@]32CC1 reported="0.39 µM"
compound=Cc1nc2sc(C(=O)Nc3cccc4ccccc34)c(N)c2cc1C(=O)/C=C/c1ccccc1 reported="1.01 µM"
compound=CCCc1c(O)c(=O)c2c(OC)cc(OC)c3c4c(OC)cc(OC)c5c(=O)c(O)c(CCC)c(c1c23)c54 reported="11.3 µM"
compound=C(=Nc1ccc(-c2cc(-c3ccccc3)nc3ccc4ccccc4c23)cc1)c1ccccc1 reported="> 100 µM"
compound=O=C(/C=C/c1cccs1)c1ccc(Nc2nc(Nc3ccc(F)cc3)nc(Nc3ccc(F)cc3)n2)cc1 reported="35.4 µM"
compound=CCN1CCN(CC(=O)Nc2nc3ccc(NCc4ccc(Cl)cc4)cc3s2)CC1 reported="4.03 µM"
compound=COc1ccc(C/C(C)=C(\c2ccc(OCCN3CCOCC3)cc2)c2ccc(OC(=O)Cc3ccccc3)cc2)cc1 reported="0.965 µM"
compound="COC1(O)C(=O)c2ccccc2OC1(OC)c1ccccc1 (stereo not drawn)" reported="> 100 µM"
compound=Cc1cccc(NC(=O)c2cc3cc(N=Nc4ccccc4Cl)ccc3oc2=O)c1 reported="> 100 µM"
compound="COc1cc(C(O)c2nc3ccccc3s2)cc(OC)c1OC (stereo not drawn)" reported="> 100 µM"
compound=O=c1c(Sc2c(O)c3ccccc3c3ccccc3c2=O)c(O)c2ccccc2c2ccccc12 reported="84 µM"
compound=O=C(CCCCCCSc1nc(-c2ccccc2)cc(-c2ccccc2)n1)NO reported="4.08 µM"
compound=O=C(N/N=C/c1ccc([N+](=O)[O-])cc1)c1cccc2nc3ccccc3nc12 reported="> 100 µM"
compound=COc1cc(-c2c(C#N)c(N)c(C#N)c3c2COc2ccccc2-3)cc(OC)c1OC reported="34.4 µM"
compound=O=C1c2cc3c(cc2CC12Cc1cc4c(cc1C2=O)CCC4)CCC3 reported="> 100 µM"
compound="O=C(O)C12C3C4C1C1C2C3C1(Br)C41OCCO1 (stereo not drawn)" reported="> 100 µM"
compound=CC(=O)Oc1ccc2c(C)cc(=O)oc2c1 reported="> 100 µM"
compound="C=C1CC2(C[C@@H](c3ccccc3)O[C@@H](c3ccccc3)C2)OC1=O (stereo partly drawn)" reported="28.9 µM"
compound=CC(=O)Nc1ccccc1C=C1c2ccccc2-c2ccccc21 reported="60.4 µM"
compound=CS/C(=N\C(=S)Nc1ccccc1)Nc1ccccc1 reported="> 100 µM"
compound=CCN(CCCN(CC)C(=O)Nc1ccccc1)C(=O)Nc1ccccc1 reported="> 100 µM"
compound=CCc1ccccc1N1CCN(C(=O)c2cc(OC)c(OC)c(OC)c2)CC1 reported="4.14 µM"
compound=COc1ccc(Cc2c(N)[nH]c(=O)n(C)c2=O)cc1 reported="> 100 µM"
compound=COc1ccc(N=Nc2ccc3oc(=O)c(C(=O)Nc4ccccc4)cc3c2)cc1 reported="> 10 µM"
compound=O/N=C/c1cc2c(cc1Br)OCO2 reported="> 100 µM"
compound="COc1cc(/C=C/C(=O)OC2C(O)C3CC(OC(=O)c4cc(OC)c(OC)c(OC)c4)CC2N3C)cc(OC)c1OC (stereo not drawn)" reported="> 50 µM"
compound=NC(=O)c1oc([N+](=O)[O-])c(-c2ccccc2)c1-c1ccccc1 reported="71.1 µM"
compound="CCO[C@@H]1CCC(S(=O)c2ccc(C)cc2)=CO1 (stereo partly drawn)" reported="> 100 µM"
compound=N=c1c2c(-c3ccccc3)c(-c3ccccc3)n(Cc3ccccc3)c2ncn1CCCO reported="13.3 µM"
compound="CCCCCCCCCCCCCCCCCCNc1ccn(C2OC(CO)C(O)C2O)c(=O)n1 (stereo not drawn)" reported="> 100 µM"
compound=COc1cc(NCc2ccc3nc(-c4ccccc4)c(N)nc3c2)cc(OC)c1OC reported="> 100 µM"
compound=Nc1ccn(CCO)c(=O)n1 reported="> 100 µM"
compound="NC1CC(N)c2c(Br)sc(Br)c21 (stereo not drawn)" reported="> 100 µM"
compound=COc1cc2c(cc1OC)CC(=O)c1cc(OC)c(OC)cc1/C=C\2 reported="> 12.5 µM"
compound="C=C1C(=O)OC2C1CC[C@H](C)C13OC(=O)CC1[C@@]23C (stereo partly drawn)" reported="> 100 µM"

Cited source: PubChem BioAssay (NCI)
